Just for reference, the RNAGym collection of RNA variant scans (doi:10.7554/elife.80360) is where these values come from.

B1: CPEB3 Ribozyme (parent)
chain: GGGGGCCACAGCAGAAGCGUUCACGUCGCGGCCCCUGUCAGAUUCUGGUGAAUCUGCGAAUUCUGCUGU

variants of: B1; experiment: self-cleavage, relative activity (ratio to wild type); higher = more cleavage; co-transcriptional
Please map values of self-cleavage to classes as shown: group A: < 0.4; group B: ≥ 0.4 and < 0.7; group C: ≥ 0.7

{"columns": ["sequence-entry", "label-class"],
 "data": [
  ["GGGGGCCACAGCAGAAGCGCUCACGACGCGGCCCCUGUCAGAUUCUGGUGAAUCUGCGAAUUCUGCUGU [U20C U26A]", "group A"],
  ["GGGGGCAAGAGCAGAAGCGUUCACGUCGCGGCCCCUGUCAGAUUCUGGUGAAUCUGCGAAUUCUGCUGU [C7A C9G]", "group B"],
  ["GGGGGCCACAGCAGAAGCGUUCACGUCGCGGCCCUUGUCAGAUUCUGGUGAAUCUCCGAAUUCUGCUGU [C35U G56C]", "group B"],
  ["GGGGGCCACAGCAGAAGCGUUCACGUCGCGUCCCCUGUCAGAUUCUGGUGAAUCUGCGAAUUCUGGUGU [G31U C66G]", "group B"],
  ["GGGGGCCACAGCAGAGGCGUUCACGUCGCGGCCCCUGUCAGAAUCUGGUGAAUCUGCGAAUUCUGCUGU [A16G U43A]", "group C"],
  ["GGGGGCCACAGCAGAAGCGUUAACGUCGCGGCCCCUGUCAGAUUCUGGUCAAUCUGCGAAUUCUGCUGU [C22A G50C]", "group A"],
  ["GGGGGCCACAGCAGAUGCGUUCACGUCGCGGCCCCUGUCAGAUUCUGGUGAAUCUGCGUAUUCUGCUGU [A16U A59U]", "group A"],
  ["GGGGGCCACAGCAGAAGCGUUCGCGUCGCGGCCCCUGUCCGAUUCUGGUGAAUCUGCGAAUUCUGCUGU [A23G A40C]", "group A"],
  ["GGGGGCCACAGUAGAAGCGUUCACGUCGCGUCCCCUGUCAGAUUCUGGUGAAUCUGCGAAUUCUGCUGU [C12U G31U]", "group C"],
  ["GGGGGCCACAGCAGAAGCGUUCACGUCGCGGCCCCUGUCAGAUUCUGGUGAAUCUGCGAAUUCGGGUGU [U64G C66G]", "group B"],
  ["GGGGGCCACAGCAGAAGCGUUCACGUCGCGGCCCCUGUCAGCUACUGGUGAAUCUGCGAAUUCUGCUGU [A42C U44A]", "group C"]
]}
